Documented pIC50 across a set of compounds
Target: GST-tagged recombinant full-length human Pim-2 (Homo sapiens, UniProt Q9P1W9)
Construct: GST-tagged recombinant full-length human Pim-2; GST
Sequence (Q9P1W9 whole entry): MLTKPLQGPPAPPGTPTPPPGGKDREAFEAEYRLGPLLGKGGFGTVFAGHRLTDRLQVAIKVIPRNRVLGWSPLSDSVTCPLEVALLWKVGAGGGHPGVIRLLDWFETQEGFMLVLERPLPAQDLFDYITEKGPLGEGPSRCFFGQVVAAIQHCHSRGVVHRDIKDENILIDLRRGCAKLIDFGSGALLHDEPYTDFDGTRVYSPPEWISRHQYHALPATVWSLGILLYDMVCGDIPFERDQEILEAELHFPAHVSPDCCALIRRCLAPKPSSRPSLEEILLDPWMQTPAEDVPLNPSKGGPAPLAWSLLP
Assay: PIM-2 Assay (as Example A)
Conditions: averaged IC50; 4 μM ATP, 1.0 μM PIM2tide, 1.5 nM Pim-2
pIC50: −log10 of the molar value. Structures can show the parent of a compound that is named as a salt.

COMPOUND	TESTED SYSTEM	SIGN QUALIFIER	pIC50
CO[C@H](C)COc1cc(-c2nnc3ccc([C@@H](N4CC[C@H](N)C4)C(F)(F)F)cn23)nc2ccccc12 [Example 291, formate]	GST-tagged recombinant full-length human Pim-2 (Homo sapiens, UniProt Q9P1W9)	=	7.09
N[C@H]1CCN([C@H](c2ccc3nnc(-c4ccc5cc(F)c(OCC6CC6)cc5n4)n3c2)C(F)(F)F)C1 [Example 134, hydrochloride]	GST-tagged recombinant full-length human Pim-2 (Homo sapiens, UniProt Q9P1W9)	=	7.32
O[C@@H]1CN([C@H](c2ccc3nnc(-c4ccc5cccc(C6CC6)c5n4)n3c2)C(F)(F)F)C[C@H]1O	GST-tagged recombinant full-length human Pim-2 (Homo sapiens, UniProt Q9P1W9)	<	7.00
COc1c(C2CC2)ccc2ccc(-c3nnc4ccc([C@@H](N5CC[C@H](N)C5)C(F)(F)F)cn34)nc12 [Example 69, dihydrochloride]	GST-tagged recombinant full-length human Pim-2 (Homo sapiens, UniProt Q9P1W9)	=	7.42
CC(C)Oc1c(F)ccc2ccc(-c3nnc4ccc([C@@H](N5CC[C@H](N)C5)C(F)(F)F)cn34)nc12 [Example 109, hydrochloride]	GST-tagged recombinant full-length human Pim-2 (Homo sapiens, UniProt Q9P1W9)	<	7.00
CC(C)C(=O)Nc1ccc2ccc(-c3nnc4ccc([C@@H](N5CC[C@H](O)C5)C(F)(F)F)cn34)nc2c1	GST-tagged recombinant full-length human Pim-2 (Homo sapiens, UniProt Q9P1W9)	<	7.00
C[C@@]1(N)CCN([C@H](c2ccc3nnc(-c4ccc5cccc(C6CC6)c5n4)n3c2)C(F)(F)F)C1 [Example 95, dihydrochloride]	GST-tagged recombinant full-length human Pim-2 (Homo sapiens, UniProt Q9P1W9)	=	7.10
N#CCOc1cccc2ccc(-c3nnc4ccc([C@@H](N5CC[C@H](N)C5)C(F)(F)F)cn34)nc12 [Example 270, formate]	GST-tagged recombinant full-length human Pim-2 (Homo sapiens, UniProt Q9P1W9)	=	6.36
CC1(N)CCN(C(c2ccc3nnc(-c4ccc5cccc(OCC6CC6)c5n4)n3c2)C(F)(F)F)C1 (stereo not drawn) [Example 27, dihydrochloride]	GST-tagged recombinant full-length human Pim-2 (Homo sapiens, UniProt Q9P1W9)	=	6.48
CO[C@@H](C)COc1cccc2ccc(-c3nnc4ccc([C@@H](N5CC[C@H](N)C5)C(F)(F)F)cn34)nc12 [Example 212, dihydrochloride]	GST-tagged recombinant full-length human Pim-2 (Homo sapiens, UniProt Q9P1W9)	=	7.14
COCC(C)(COC)c1cccc2ccc(-c3nnc4ccc([C@@H](N5CC[C@H](N)C5)C(F)(F)F)cn34)nc12 [Example 110, dihydrochloride]	GST-tagged recombinant full-length human Pim-2 (Homo sapiens, UniProt Q9P1W9)	=	7.02
CC(C)Oc1cccc2ccc(-c3nnc4ccc([C@@H](N5CC[C@](N)(CF)C5)C(F)(F)F)cn34)nc12 (single isomer, unassigned) [Example 155, dihydrochloride]	GST-tagged recombinant full-length human Pim-2 (Homo sapiens, UniProt Q9P1W9)	=	7.35
CC1(O)CCN([C@H](c2ccc3nnc(-c4ccc5cccc(C(C)(C)C)c5n4)n3c2)C(F)(F)F)C1 (single isomer, unassigned; diastereomer 2) [Example 196, hydrochloride]	GST-tagged recombinant full-length human Pim-2 (Homo sapiens, UniProt Q9P1W9)	<	6.00
CC(C)Oc1cccc2ccc(-c3nnc4ccc([C@@H](N5CCC(N)(CO)C5)C(F)(F)F)cn34)nc12 (stereo partly drawn) [Example 197, dihydrochloride]	GST-tagged recombinant full-length human Pim-2 (Homo sapiens, UniProt Q9P1W9)	=	6.82
COCCOc1ccc2ccc(-c3nnc4ccc([C@@H](N5CC[C@H](N)C5)C(F)(F)F)cn34)nc2c1Cl [Example 174, hydrochloride]	GST-tagged recombinant full-length human Pim-2 (Homo sapiens, UniProt Q9P1W9)	<	7.00
FC(F)(F)C(c1ccc2nnc(-c3ccc4cccc(OCC5CC5)c4n3)n2c1)N1C[C@H]2C[C@@H]1CN2 (stereo partly drawn) [Example 25, dihydrochloride]	GST-tagged recombinant full-length human Pim-2 (Homo sapiens, UniProt Q9P1W9)	=	7.07
CC1Cc2c(ccc3ccc(-c4nnc5ccc([C@@H](N6CC[C@H](N)C6)C(F)(F)F)cn45)nc23)O1 (stereo partly drawn) [Example 144, dihydrochloride]	GST-tagged recombinant full-length human Pim-2 (Homo sapiens, UniProt Q9P1W9)	=	7.32
CSCCOc1ccc2ccc(-c3nnc4ccc([C@@H](N5CC[C@H](N)C5)C(F)(F)F)cn34)nc2c1 [Example 281, hydrochloride]	GST-tagged recombinant full-length human Pim-2 (Homo sapiens, UniProt Q9P1W9)	=	6.62
COCCOc1cc2nc(-c3nnc4ccc([C@H](N5CC[C@](C)(N)C5)C(F)(F)F)cn34)ccc2cc1F [Example 298, dihydrochloride]	GST-tagged recombinant full-length human Pim-2 (Homo sapiens, UniProt Q9P1W9)	=	7.23
CO[C@H](C)COc1ccc2ccc(-c3nnc4ccc([C@H](N5CC[C@](C)(N)C5)C(F)(F)F)cn34)nc2c1	GST-tagged recombinant full-length human Pim-2 (Homo sapiens, UniProt Q9P1W9)	=	7.15
CCOc1cc2nc(-c3nnc4ccc([C@@H](N5CC[C@](C)(N)C5)C(F)(F)F)cn34)ccc2cc1F [Example 247, dihydrochloride]	GST-tagged recombinant full-length human Pim-2 (Homo sapiens, UniProt Q9P1W9)	=	6.41
N[C@H]1CCN([C@H](c2ccc3nnc(-c4ccc5ccc(C6CC6)c(F)c5n4)n3c2)C(F)(F)F)C1 [Example 172, dihydrochloride]	GST-tagged recombinant full-length human Pim-2 (Homo sapiens, UniProt Q9P1W9)	<	7.00
COc1cccc2ccc(-c3nnc4ccc([C@@H](N5CC[C@](C)(N)C5)C(F)(F)F)cn34)nc12 [Example 246, dihydrochloride]	GST-tagged recombinant full-length human Pim-2 (Homo sapiens, UniProt Q9P1W9)	<	6.00
FC(F)(F)[C@@H](c1ccc2nnc(-c3ccc4cccc(OCC5CC5)c4n3)n2c1)N1C[C@@H]2C[C@H]1CN2 [Example 67, dihydrochloride]	GST-tagged recombinant full-length human Pim-2 (Homo sapiens, UniProt Q9P1W9)	=	7.20
